- Test summary: Partition coefficient, logD between 1-octanol and pH 7.4 aqueous buffer by chromatographic analysis
- Type: physicochemical
- Condition parameters: 1-octanol/pH 7.4 aqueous buffer
Listing: logD of selected compounds
Just the number, please, no unit after it.

>>> reported_value("CC(C)SC(=O)N1CCC(Oc2cc(N3CCc4cc([S+]([O-])CCO)ccc43)ncn2)CC1 (stereo in doubt; form 2)")
3.3

[Q] Which value of logD has been reported for CC(=O)N(C)c1ccc2c(c1)CCN2c1cc(OC2CCN(c3nc(C(C)C)no3)CC2)ncn1 in the records?
[A] 3.7

[Q] Which value of logD has been reported for CC(C)c1noc(N2CCC(Oc3cc(N4CCc5cc(N6CCCCC6=O)ccc54)ncn3)CC2)n1 in the records?
[A] 3.8
